Target: T1, Cynomolgus CD3εδ Fc heterodimer (Cy CD3ε Fc / CD3δ Fc-HIS) (cynomolgus, UniProt Q95LI8 22-100)
T1 chain 1: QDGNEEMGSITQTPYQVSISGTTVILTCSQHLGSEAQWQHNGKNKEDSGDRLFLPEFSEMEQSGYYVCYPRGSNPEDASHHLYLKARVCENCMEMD
T1 chain 2: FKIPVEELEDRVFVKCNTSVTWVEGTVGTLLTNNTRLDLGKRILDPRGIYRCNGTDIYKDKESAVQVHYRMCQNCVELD
Assay: BLI (Octet), IgG on AHC sensor, pH 7.4
Reported kon values follow for various binders

{"Binder": "SAD10320_P01_B03 (ADI-57354) (antibody, V domains shown, IgG; also called Ab61) VH: QVQLVQSGAEVKKPGASVKVSCKASGFNIKDYYMHWVRQAPGQRLEWMGWIDLENANTIYDAKFQGRVTITRDTSASTAYMELSSLRSDDTAVYYCARDQHGRYFYDVWGQGTLVTVSS VL: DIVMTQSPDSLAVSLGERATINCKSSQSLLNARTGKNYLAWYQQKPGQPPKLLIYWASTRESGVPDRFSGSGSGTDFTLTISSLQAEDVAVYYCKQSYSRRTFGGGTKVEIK", "kon (M⁻¹ s⁻¹)": 212000}
{"Binder": "SAD10319_P02_C06 (ADI-57322) (antibody, V domains shown, IgG; also called Ab10) VH: QVQLVQSGAEVKKPGASVKVSCKASGYTFTSYAMHWVRQAPGQRLEWMGWINPVTGATVYSQKFQGRVTITRDTSASTAYMELSSLRSEDTAVYYCARDAYGHYFYDVWGQGTLVTVSS VL: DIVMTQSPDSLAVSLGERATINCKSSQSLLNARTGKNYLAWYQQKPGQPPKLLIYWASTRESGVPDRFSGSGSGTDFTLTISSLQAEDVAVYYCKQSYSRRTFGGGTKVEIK", "kon (M⁻¹ s⁻¹)": 496000}
{"Binder": "LAD9964_P01_C07 (ADI-57444) (antibody, V domains shown) VH: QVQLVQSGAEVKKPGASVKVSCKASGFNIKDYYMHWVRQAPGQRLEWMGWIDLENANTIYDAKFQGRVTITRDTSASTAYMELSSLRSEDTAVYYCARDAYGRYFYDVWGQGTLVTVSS VL: DIVMTQSPDSLAVSLGERATINCKSSQSLLNARTHKNYLAWYQQKPGQPPKLLIYWASTRESGVPDRFSGSGSGTDFTLTISSLQAEDVAVYYCKQSYSRRTFGGGTKVEIK", "kon (M⁻¹ s⁻¹)": 310000}

All figures here come from patent US20220380463A1.
